# Tested on: AR mRNA
# Method description: Dose-dependent antisense inhibition of human AR in HuVEC cells (electroporation, qRT-PCR RTS3559, IC50)
# Type: cell-based
# Test settings: 187.5 nM; HuVEC, ~16 h; Table 15
Oligonucleotides are written 5' to 3', each unit as a sugar letter and its base; * is a phosphorothioate linkage, no mark a phosphodiester; rarer units and linkages stand in square brackets, end groups in braces. Plain capitals give the bases only. k = constrained ethyl (cEt); [5mC] = 5-methylcytosine; d = 2'-deoxy (DNA)

# Substance, percent inhibition of AR, %
rows = [
    ("549458 (kG*kT*kT*dG*dA*dT*dT*dT*dA*dA*dT*dG*dG*kT*kT*kG) [compound 549458]", 50),
    ("586227 (kT*kG*kA*kT*kT*dT*dA*dA*dT*dG*dG*dT*dT*kG*k[5mC]*kA; antisense) [compound 586227]", 60),
    ("586124 (kG*kA*kT*dT*dT*dA*dA*dT*dG*dG*dT*dT*dG*k[5mC]*kA*kA; further chemistry not given here) [compound 586124]", 47),
]

###

Property: AST; scope: individual substances
# Test settings: cynomolgus monkey, in vivo, sc, 40 mg/kg

# Substance, AST
measured = [
    ("GATTTAATGGTTGCAA (cEt gapmer chemistry, further chemistry not given here) [ISIS 586124]", "94 IU/L"),
    ("TGATTTAATGGTTGCA [ISIS 569216] (cEt/MOE gapmer chemistry, further chemistry not given here)", "93 IU/L"),
    ("ISIS 584269: antisense compound targeted to human AR (CCTTATGGATGCTGCT; 3-10-3 (S)-cEt gapmer, further chemistry not given here)", "81 IU/L"),
]

###

# Tested on: AR mRNA
# Method description: Dose-dependent antisense inhibition of human AR in HuVEC cells (electroporation, qRT-PCR RTS3559, IC50)
# Type: cell-based
# Test settings: HuVEC, ~16 h; Table 4
Oligonucleotides are written 5' to 3', each unit as a sugar letter and its base; * is a phosphorothioate linkage, no mark a phosphodiester; rarer units and linkages stand in square brackets, end groups in braces. Plain capitals give the bases only. k = constrained ethyl (cEt); [5mC] = 5-methylcytosine; d = 2'-deoxy (DNA)
Threshold-based label: IC50 under 200 nM gives label 1, IC50 not under 200 nM gives label 0.

# Substance, Target or test system, Category
measured = [
    ("549366 (k[5mC]*kT*kT*dG*d[5mC]*d[5mC]*dT*dG*d[5mC]*dG*d[5mC]*dT*dG*kT*k[5mC]*kG; antisense) [compound 549366]", "AR mRNA", "label 1"),
    ("549457 (kT*kT*kG*dA*dT*dT*dT*dA*dA*dT*dG*dG*dT*kT*kG*k[5mC]) [compound 549457]", "AR mRNA", "label 1"),
    ("549459 (kA*kT*kG*dG*dT*dT*dG*dA*dT*dT*dT*dA*dA*kT*kG*kG) [compound 549459]", "AR mRNA", "label 1"),
    ("549338 (kG*kG*k[5mC]*dT*dG*dT*dG*dA*dT*dG*dA*dT*dG*k[5mC]*kG*kG; antisense) [compound 549338]", "AR mRNA", "label 1"),
    ("549434 (k[5mC]*kT*kA*dA*dA*d[5mC]*dT*dT*d[5mC]*d[5mC]*d[5mC]*dG*dT*kG*kG*k[5mC]) [compound 549434]", "AR mRNA", "label 1"),
    ("549432 (kG*kA*kG*dG*dA*dT*d[5mC]*dA*dT*d[5mC]*dA*d[5mC]*dA*kG*kA*kT) [compound 549432]", "AR mRNA", "label 1"),
    ("549387 (kA*kG*k[5mC]*dT*dT*d[5mC]*dA*dT*d[5mC]*dT*d[5mC]*d[5mC]*dA*k[5mC]*kA*kG; antisense) [compound 549387]", "AR mRNA", "label 0"),
    ("549332 (kG*k[5mC]*kG*d[5mC]*dT*d[5mC]*dT*dG*dA*d[5mC]*dA*dG*d[5mC]*k[5mC]*kT*k[5mC]; antisense) [compound 549332]", "AR mRNA", "label 1"),
    ("549414 (kG*kT*kT*d[5mC]*dA*dT*dT*d[5mC]*dG*dA*dA*dG*dT*kT*k[5mC]*kA) [compound 549414]", "AR mRNA", "label 0"),
    ("549334 (k[5mC]*kA*k[5mC]*d[5mC]*dT*dG*d[5mC]*dG*dG*dG*dA*dA*dG*k[5mC]*kT*k[5mC]; antisense) [compound 549334]", "AR mRNA", "label 0"),
    ("549347 (k[5mC]*kT*kT*d[5mC]*dG*d[5mC]*dG*d[5mC]*dA*d[5mC]*dG*d[5mC]*dT*k[5mC]*kT*kG; antisense) [compound 549347]", "AR mRNA", "label 0"),
    ("549458 (kG*kT*kT*dG*dA*dT*dT*dT*dA*dA*dT*dG*dG*kT*kT*kG) [compound 549458]", "AR mRNA", "label 1"),
]

###

# System: AR mRNA
# Method description: AR mRNA levels in LMR20 cells (with/without DHT or R1881)
# Assay type: cell-based, human
# Test settings: LMR20 cells, R1881 10 nM 72 hrs, ASO 0.20 μM
# Protocol: LMR20 cells were plated at 1,500 cells per well in phenol red-free medium with CSS.
Oligonucleotides are written 5' to 3', each unit as a sugar letter and its base; * is a phosphorothioate linkage, no mark a phosphodiester; rarer units and linkages stand in square brackets, end groups in braces. Plain capitals give the bases only. e = 2'-O-(2-methoxyethyl) (MOE); l = locked nucleic acid (LNA); k = constrained ethyl (cEt); [5mC] = 5-methylcytosine; d = 2'-deoxy (DNA)
Parameter measured: AR mRNA levels (% baseline value) after treatment with R1881

# Substance, Measurement
rows = [
    ("554221 (ACCAAGTTTCTTCAGC; sugars from the 5' end l3 d10 l3, all phosphorothioate, methylation of C not given here) [compound 554221]", 133),
    ("569236 (antisense eT*kG*kA*kT*dT*dT*dA*dA*dT*dG*dG*kT*kT*kG*e[5mC]*eA) [compound 569236]", 80),
    ("549458 (kG*kT*kT*dG*dA*dT*dT*dT*dA*dA*dT*dG*dG*kT*kT*kG) [compound 549458]", 56),
    ("560131 (antisense kT*kT*kG*dA*dT*dT*dT*dA*dA*dT*dG*dG*kT*kT*kG*e[5mC]) [compound 560131]", 65),
]

###

# Tested on: AR mRNA
# Method description: Dose-dependent antisense inhibition of human AR in HuVEC cells (electroporation, qRT-PCR RTS3559, IC50)
# Assay type: cell-based
# Test settings: Table 34; 187.5 nM, HuVEC, electroporation, approximately 16 hours
Oligonucleotides are written 5' to 3', each unit as a sugar letter and its base; * is a phosphorothioate linkage, no mark a phosphodiester; rarer units and linkages stand in square brackets, end groups in braces. Plain capitals give the bases only. k = constrained ethyl (cEt); [5mC] = 5-methylcytosine; d = 2'-deoxy (DNA)
Kind request: treat 20% as inclusive, so percent inhibition of AR, 187.5 nM at 20% or higher is label 1, anything lower is label 0.

# Substance, Category
records = [
    ("584128 (kA*kT*kT*d[5mC]*dT*dT*dG*dA*d[5mC]*dT*dG*dT*d[5mC]*kT*kG*kA; antisense) [compound 584128]", "label 1"),
    ("549372 (kA*kA*kG*dT*dT*dG*dT*dA*dG*dT*dA*dG*dT*k[5mC]*kG*k[5mC]) [compound 549372]", "label 1"),
    ("583999 (kA*k[5mC]*k[5mC]*dA*dT*dG*d[5mC]*d[5mC]*dG*d[5mC]*d[5mC]*dA*dG*kG*kG*kT; antisense) [compound 583999]", "label 0"),
    ("549458 (kG*kT*kT*dG*dA*dT*dT*dT*dA*dA*dT*dG*dG*kT*kT*kG) [compound 549458]", "label 1"),
    ("584002 (k[5mC]*kT*kG*d[5mC]*dT*d[5mC]*dA*d[5mC]*d[5mC]*dA*dT*dG*d[5mC]*k[5mC]*kG*k[5mC]; antisense) [compound 584002]", "label 1"),
]

###

# Tested on: AR mRNA
# Method description: Dose-dependent antisense inhibition of human AR in HuVEC cells (electroporation, qRT-PCR RTS3559, IC50)
# Format: cell-based
# Test settings: Table 31; 46.9 nM, HuVEC, electroporation, approximately 16 hours
Oligonucleotides are written 5' to 3', each unit as a sugar letter and its base; * is a phosphorothioate linkage, no mark a phosphodiester; rarer units and linkages stand in square brackets, end groups in braces. Plain capitals give the bases only. k = constrained ethyl (cEt); [5mC] = 5-methylcytosine; d = 2'-deoxy (DNA)
Parameter measured: percent inhibition of AR, 46.9 nM

# Substance, Target or test system, Measurement
records = [
    ("583818 (antisense kT*kG*kG*dT*d[5mC]*dG*dA*dA*dG*dT*dG*d[5mC]*d[5mC]*k[5mC]*k[5mC]*k[5mC]) [compound 583818]", "AR mRNA", "9%"),
    ("549458 (kG*kT*kT*dG*dA*dT*dT*dT*dA*dA*dT*dG*dG*kT*kT*kG) [compound 549458]", "AR mRNA", "24%"),
    ("583713 (antisense kA*kT*k[5mC]*d[5mC]*dT*dT*dG*dA*dG*d[5mC]*dT*dT*dG*kG*k[5mC]*kT) [compound 583713]", "AR mRNA", "29%"),
]
